The values you see were collected from patent US20190021380A1.

- target or system: cat T1R1/T1R3 receptor (Felis catus, UniProt E3UMS2)
- assay: cell-based
- measurement setup: EC50-with Ala (mM)
Where a name gives a salt, the structure may show the parent alone.
observation type: EC50

Consider the reported EC50 for these compounds:
compound	EC50
O=c1ccn([C@H]2C[C@H](O)[C@@H](COP(O)(O)=S)O2)c(=O)[nH]1	> 30 mM
O=c1ccn([C@H]2O[C@@H](COP(=O)(O)O)[C@H](O)[C@@H]2O)c(=O)[nH]1 (stereo in doubt) [Uridine 5′-monophosphate disodium salt]	> 30 mM
Nc1ncnc2c1ncn2[C@@H]1O[C@H](COP(=O)(O)O)[C@@H](O)[C@H]1O [adenosine monophosphate (AMP), adenosine monophosphate, reference compound]	0.011 mM

Dear reader, for each entry below, please note its EC50.
1. O=c1ccn([C@@H]2O[C@H](COP(=O)(O)O)[C@@H](O)[C@H]2O)c(=O)[nH]1 [UMP, uridine monophosphate, reference compound]
2. NC(=O)c1ncn(C2OC(COP(=O)(O)O)C(O)C2O)c1N (centres unmarked)

*A*
["> 30 mM", "> 1 mM"]

* * *

Provide the recorded EC50 for the entries that follow.
- target or system: T1R1/T1R3 receptor (Felis catus)
- assay: cell-based
- Assay type: cell-based
- measurement setup: compound alone in buffer; read-out: EC50 (mM) +buffer (alone)

compound	EC50
CCCC(C)NC(=O)/C=C/c1ccc(OC)c(OC)c1 (centres unmarked)	> 10 mM

# ---- query compound ----
*Q* Which EC50 is listed for CCOC(=O)C(NC(=O)c1ccc2c(c1)OCO2)C(C)C (centres unmarked) ?
*A* > 10 mM

* * *

- target or system: T1R1/T1R3 receptor (Felis catus)
- assay: Example 8: agonist screening of transmembrane compounds on T1R1/T1R3 in HEK293 cells
- Format: cell-based, cat
- measurement setup: transmembrane compound tested at 0.01, 0.1 and 1 mM; HEK293 cells expressing T1R1/T1R3; calcium dye and/or luminescent reporter
observation type: T1R1/T1R3 agonist

Consider the reported T1R1/T1R3 agonist for these molecules:
molecule	target or system	T1R1/T1R3 agonist
O=C(CN1C(=O)C(=O)N(CCc2cccs2)C1=O)c1ccccc1	T1R1/T1R3 receptor (Felis catus)	No
O=C1C(=O)N(Cc2ccccc2)C(=S)N1Cc1ccccc1	T1R1/T1R3 receptor (Felis catus)	No
COc1ccc(C(=O)CN2C(=O)C(=O)N(Cc3ccccc3)C2=O)c(OC)c1	T1R1/T1R3 receptor (Felis catus)	No
O=C(CN1C(=O)C(=O)N(Cc2ccccc2)C1=O)c1ccccc1	T1R1/T1R3 receptor (Felis catus)	No

Dear reader, for each entry below, please note its T1R1/T1R3 agonist.
1. CCCC(CCC)NC(=O)c1ccc2c(c1)OCO2
2. N[C@@H](Cc1ccc(O)cc1)C(=O)OCc1ccccc1
3. COC(=O)[C@H](CC(C)C)NCc1ccccc1.Cl
4. Cl.N[C@@H](Cc1ccccc1)C(=O)OCc1ccccc1
5. N#Cc1cccc(NC(=O)CN2C(=O)C(=O)N(Cc3ccccc3)C2=O)c1
6. O=C(CN1C(=O)C(=O)N(CCc2cccs2)C1=O)c1ccc2c(c1)OCO2

*A*
Yes
No
Yes
Yes
No
No

* * *

- target or system: T1R1/T1R3 receptor (Felis catus)
- Type: cell-based
- measurement setup: in the presence of 0.2 mM IMP; CNBD = Could not be determined
observation type: Max resp ΔF/F +IMP (0.2 mM)

compound	target or system	measurement
N[C@@H](CCC(=O)O)C(=O)[O-].[Na+] [MSG (Glutamic acid sodium salt), monosodium glutamate]	T1R1/T1R3 receptor (Felis catus)	CNBD
O=C(NCCc1ccccc1)c1ccccc1 [N-phenethylbenzamide]	T1R1/T1R3 receptor (Felis catus)	0.9800 ΔF/F
N[C@@H](CS)C(=O)O [L-Cysteine, cysteine]	T1R1/T1R3 receptor (Felis catus)	0.5800 ΔF/F
Nc1nc2c(ncn2[C@@H]2O[C@H](COP(=O)(O)OP(=O)(O)O)[C@@H](O)[C@H]2O)c(=S)[nH]1 [6-Thioguanosine-5′-O-diphosphate]	T1R1/T1R3 receptor (Felis catus)	0.0720 ΔF/F

# ---- query compound ----
*Q* Which Max resp ΔF/F +IMP (0.2 mM) is listed for N[C@@H](Cc1ccccc1)C(=O)O [L-Phenylalanine, reference compound] ?
*A* 0.5900 ΔF/F
